Below, each entry is listed alongside its reported Ratio Ki(app).
experiment: Selectivity ratio of Ki(app) for recombinant mouse iNOS to Ki(app) for recombinant rat nNOS

> print(dat)
                                smiles.repr  meas.value
1  N=C(Nc1cccc(OCCOc2cccc(NC(=N)c3cccs3)c2)c1)c1cccs1         513
2  N=C(Nc1cccc(-c2cccc(NC(=N)c3cccs3)c2)c1)c1cccs1          84
3  N=C(Nc1cccc(OCCCOc2cccc(NC(=N)c3cccs3)c2)c1)c1cccs1          53

As a next step, examine the molecule that follows.
Sure, the documented Ratio Ki(app) for "N=C(Nc1cccc(CCc2cccc(NC(=N)c3cccs3)c2)c1)c1cccs1" is 141

###

Biological target: Nitric oxide synthase 3 (Bos taurus, UniProt P29473)
Sequence (P29473 whole entry): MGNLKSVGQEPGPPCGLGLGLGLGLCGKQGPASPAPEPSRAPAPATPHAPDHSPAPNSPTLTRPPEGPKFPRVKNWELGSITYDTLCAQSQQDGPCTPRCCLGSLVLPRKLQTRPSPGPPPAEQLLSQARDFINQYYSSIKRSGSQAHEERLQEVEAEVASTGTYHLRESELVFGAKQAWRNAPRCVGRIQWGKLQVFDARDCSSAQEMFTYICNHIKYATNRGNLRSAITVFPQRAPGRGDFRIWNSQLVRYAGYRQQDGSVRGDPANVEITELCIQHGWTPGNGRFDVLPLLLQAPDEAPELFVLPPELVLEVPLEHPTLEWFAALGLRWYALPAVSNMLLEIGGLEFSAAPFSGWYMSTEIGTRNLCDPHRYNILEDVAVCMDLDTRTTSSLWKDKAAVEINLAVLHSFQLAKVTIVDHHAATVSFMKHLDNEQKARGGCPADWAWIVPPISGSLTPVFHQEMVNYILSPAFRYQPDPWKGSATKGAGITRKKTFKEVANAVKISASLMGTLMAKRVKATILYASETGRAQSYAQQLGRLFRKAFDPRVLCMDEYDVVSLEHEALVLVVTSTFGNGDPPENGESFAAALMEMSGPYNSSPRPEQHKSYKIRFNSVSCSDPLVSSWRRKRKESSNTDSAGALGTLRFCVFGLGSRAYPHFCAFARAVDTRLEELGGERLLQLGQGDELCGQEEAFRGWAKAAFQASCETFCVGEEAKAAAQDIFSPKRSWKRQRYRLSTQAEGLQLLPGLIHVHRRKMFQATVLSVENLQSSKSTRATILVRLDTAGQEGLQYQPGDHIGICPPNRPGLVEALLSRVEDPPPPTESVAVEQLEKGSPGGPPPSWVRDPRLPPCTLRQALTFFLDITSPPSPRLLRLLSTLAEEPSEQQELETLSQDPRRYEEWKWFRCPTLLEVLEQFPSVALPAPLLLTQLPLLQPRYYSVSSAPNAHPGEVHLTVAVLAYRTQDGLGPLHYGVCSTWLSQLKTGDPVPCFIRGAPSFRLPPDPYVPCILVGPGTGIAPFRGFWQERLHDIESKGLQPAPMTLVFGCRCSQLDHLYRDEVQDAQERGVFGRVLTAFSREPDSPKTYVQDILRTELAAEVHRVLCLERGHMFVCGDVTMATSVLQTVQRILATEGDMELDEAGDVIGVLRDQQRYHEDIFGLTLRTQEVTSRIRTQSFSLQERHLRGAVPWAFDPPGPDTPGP
measured_attribute: Ki (µM)
State the answer as a number, implicitly in µM.

Item "N=C(Nc1cccc(CCc2cccc(NC(=N)c3cccs3)c2)c1)c1cccs1" was tested on Nitric oxide synthase 3 (Bos taurus, UniProt P29473); the reported Ki is 66

Item "NC(=Nc1cccc(Cc2cccc(N=C(N)c3cccs3)c2)c1)c1cccs1" was tested on Nitric oxide synthase 3 (Bos taurus, UniProt P29473); the reported Ki is 133

###

target: Nitric oxide synthase, inducible (Mus musculus, UniProt P29477)
Sequence (P29477 whole entry): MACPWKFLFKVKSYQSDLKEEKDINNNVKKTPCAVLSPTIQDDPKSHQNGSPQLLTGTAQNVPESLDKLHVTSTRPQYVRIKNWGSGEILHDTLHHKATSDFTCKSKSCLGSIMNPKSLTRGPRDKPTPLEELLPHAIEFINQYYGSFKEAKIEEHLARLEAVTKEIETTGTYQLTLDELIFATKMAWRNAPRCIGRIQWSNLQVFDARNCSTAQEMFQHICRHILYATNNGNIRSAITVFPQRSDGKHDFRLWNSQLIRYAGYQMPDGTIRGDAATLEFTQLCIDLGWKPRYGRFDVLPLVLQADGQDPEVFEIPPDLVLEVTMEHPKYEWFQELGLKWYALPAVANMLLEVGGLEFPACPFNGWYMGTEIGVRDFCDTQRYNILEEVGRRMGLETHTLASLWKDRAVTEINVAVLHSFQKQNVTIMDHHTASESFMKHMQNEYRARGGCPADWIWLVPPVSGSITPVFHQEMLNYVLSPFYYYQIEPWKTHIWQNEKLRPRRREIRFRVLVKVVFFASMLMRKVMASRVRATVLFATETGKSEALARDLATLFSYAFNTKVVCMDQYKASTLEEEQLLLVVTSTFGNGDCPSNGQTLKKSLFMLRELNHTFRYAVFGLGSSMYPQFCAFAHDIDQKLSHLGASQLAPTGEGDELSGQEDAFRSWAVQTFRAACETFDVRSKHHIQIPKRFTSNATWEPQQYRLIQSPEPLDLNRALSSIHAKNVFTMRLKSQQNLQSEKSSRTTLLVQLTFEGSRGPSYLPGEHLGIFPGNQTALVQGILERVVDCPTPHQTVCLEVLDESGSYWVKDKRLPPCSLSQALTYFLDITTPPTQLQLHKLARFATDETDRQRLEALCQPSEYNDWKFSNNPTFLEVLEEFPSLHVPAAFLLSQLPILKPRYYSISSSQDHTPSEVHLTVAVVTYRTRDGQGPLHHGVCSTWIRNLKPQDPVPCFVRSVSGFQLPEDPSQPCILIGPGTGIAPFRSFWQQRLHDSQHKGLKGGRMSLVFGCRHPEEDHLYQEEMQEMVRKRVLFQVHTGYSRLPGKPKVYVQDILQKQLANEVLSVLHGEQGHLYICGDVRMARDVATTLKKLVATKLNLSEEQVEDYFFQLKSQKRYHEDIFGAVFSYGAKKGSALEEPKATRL
measured_attribute: pKi
Expect pKi as a plain number equal to -log10 of the molar concentration.

Item "N=C(Nc1cccc(OCCCOc2cccc(NC(=N)c3cccs3)c2)c1)c1cccs1" was tested on Nitric oxide synthase, inducible (Mus musculus, UniProt P29477); the reported pKi is 4.90

###

Below, each entry is listed alongside its reported Ratio Ki(app).
test: Selectivity ratio of Ki(app) for recombinant bovine eNOS to Ki(app) for recombinant rat nNOS
Answer using only a numeral; do not append any unit.

Sample records with Ratio Ki(app):
> print(dat)
                                smiles.repr  meas.value
1  N=C(Nc1cccc(OCCOc2cccc(NC(=N)c3cccs3)c2)c1)c1cccs1         105
2  N=C(Nc1cccc(-c2cccc(NC(=N)c3cccs3)c2)c1)c1cccs1         225
3  N=C(Nc1cccc(OCCCOc2cccc(NC(=N)c3cccs3)c2)c1)c1cccs1          17

As a next step, examine the compound that follows.
Sure, the documented Ratio Ki(app) for "N=C(Nc1cccc(CCc2cccc(NC(=N)c3cccs3)c2)c1)c1cccs1" is 89

###

// endpoint pKi / system Nitric oxide synthase 1 (Rattus norvegicus, UniProt P29476)
Expect pKi as a plain number equal to -log10 of the molar concentration.

Sample records with pKi:
> print(dat)
                                smiles.repr  measured.attribute  meas.value
1  N=C(Nc1cccc(-c2cccc(NC(=N)c3cccs3)c2)c1)c1cccs1                 pKi        6.10
2  NC(=Nc1cccc(OCCOc2cccc(N=C(N)c3cccs3)c2)c1)c1cccs1                 pKi        6.89

As a next step, examine the compound that follows.
Sure, the documented pKi for "N=C(Nc1cccc(OCCCOc2cccc(NC(=N)c3cccs3)c2)c1)c1cccs1" is 6.63
